Cited source for all entries: a melting point compilation (Tetko et al.)

property label: melting point

The reported melting point of the molecule `NCC(=O)NCC(=O)O` was 262 to 264 °C

The reported melting point of the molecule CC(=O)OC1CCC2C3CCC4CC(CC(=O)O)CCC4(C)C3CCC12C (stereo unspecified) was 151 to 153 °C

The reported melting point of the molecule CON1C(=O)C(=O)N(OC)C2CCCCC21 (stereo unspecified) was 128 to 131 °C

The reported melting point of the molecule `C1COCCOCCNCCOCCOCCN1` was 111 to 115 °C

The reported melting point of the molecule `COc1ccc(C(=O)c2ccccc2Cl)cc1OC` was 125 to 126 °C

The reported melting point of the molecule N#CCCC1CCCCCCCCCCC1=O (stereo unspecified) was 60 to 61 °C

---

Recorded measurements of melting point, one per entry
The reply should contain only the number, in °C.

# example entries with known answers
O=[N+]([O-])C(CO)(CO)CO : 214
O=C(O)c1ccccc1SSc1ccccc1C(=O)O : 288

The reported melting point of the compound `CC(=O)C(=O)Nc1ccc(Br)cc1` was 166

The reported melting point of the compound O=C(NCC1CCCCN1)c1cc(OCC(F)(F)F)ccc1OCC(F)(F)F (centres undefined) was 146

The reported melting point of the compound `Nc1ccc2c(c1)S(=O)(=O)C=C2` was 150

The reported melting point of the compound NC(=O)C(CO)NC(=O)OCC1c2ccccc2-c2ccccc21 (centres undefined) was 155

The reported melting point of the compound COc1ccc2c3c1OC1C(O)CCC4C(C2)N(C)CCC341 (centres undefined) was 200

The reported melting point of the compound `Brc1cccc2cn[nH]c12` was 128

The reported melting point of the compound `C=CCOC(=O)C=CC(=O)OCC=C` was -47

---

Recorded measurements of melting point, one per entry

# example entries with known answers
COc1ccc(C(=O)C(=O)c2ccc(OC)cc2)cc1 : 131 to 134 °C
CC(C)(O)C(N)C(=O)O (racemic) : 200 to 202 °C
CC(Cc1ccccc1)NCCC(c1ccccc1)c1ccccc1 (configuration not stated) : 38 °C
Fc1c(F)c(F)c(I)c(I)c1F : 49 to 50 °C
CCOC(=O)CC(=O)c1ccncc1 : 53 to 59 °C

The reported melting point of the molecule CCOC(=O)C(C(C)=O)C(=O)/C=C/c1ccc(OC)c(OCc2ccccc2)c1 (configuration not stated) was 207 to 208 °C

The reported melting point of the molecule `c1ccc2c(-c3nnc(-c4cccc5ccccc45)o3)cccc2c1` was 177 °C

---

property label: melting point

# example entries with known answers
COC(=O)[C@H](Cc1ccccc1)N=C=S : 34 to 36 °C
O=Cc1c[nH]c2cc(Br)ccc12 : 202 to 203 °C
Cc1csc(C(N)=O)c1 : 115 to 117 °C
COc1cc2c(cc1OC)Cc1cc(OC)c(OC)cc1Cc1cc(OC)c(OC)cc1C2 : 222 to 228 °C
CC(C)(C)OC(=O)N1CCC(c2nc(C(=O)O)cs2)CC1 : 162 to 166 °C

The reported melting point of the compound `COC(=O)C=Cc1ccc(OC)c(OC2CCCC2)c1` was 54 to 57 °C

The reported melting point of the compound O=C1OC(C2CCCCC2)Cc2ccccc21 (configuration not stated) was 71 to 74 °C
